System: 252836-082-R-J2-PDC tumor spheroids, viability;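 also: spheroids exposed to agents for seven days before readout; percent of vehicle DMSO control viability so 100% = untreated growth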
PROTOCOL DESCRIPTION: Anticancer human tumor 252836-082-R-J2-PDC patient-derived head and neck squamous cell carcinoma cell line growth inhibition [PI3K]
CONDITION: second compound 10 µM; first compound 0.000316 µM; active compounds read low; spheroids with HUVEC and MSC
Simple rule here: viability, T/C less than 30% is label 1, otherwise label 0.

Worked examples follow.
[
  {
    "COMPOUND": "Cn1ncnc1[C@H]1c2n[nH]c(=O)c3cc(F)cc(c23)N[C@@H]1c1ccc(F)cc1 + Cc1nc(NC(=O)N2CCCC2C(N)=O)sc1-c1ccnc(C(C)(C)C(F)(F)F)c1",
    "EXPERIMENTAL SYSTEM": "252836-082-R-J2-PDC tumor spheroids, viability",
    "ASSIGNED CATEGORY": "label 0"
  },
  {
    "COMPOUND": "CC(=O)c1c(C)c2cnc(Nc3ccc(N4CCNCC4)cn3)nc2n(C2CCCC2)c1=O + Cc1nc(NC(=O)N2CCCC2C(N)=O)sc1-c1ccnc(C(C)(C)C(F)(F)F)c1",
    "EXPERIMENTAL SYSTEM": "252836-082-R-J2-PDC tumor spheroids, viability",
    "ASSIGNED CATEGORY": "label 1"
  }
]

Check if viability, T/C falls below 30% for CC(=O)c1c(C)c2cnc(Nc3ccc(N4CCNCC4)cn3)nc2n(C2CCCC2)c1=O + CC(Nc1ncnc2nc[nH]c12)c1cc2cccc(Cl)c2c(=O)n1-c1ccccc1 . label 0

Same question for Cn1ncnc1[C@H]1c2n[nH]c(=O)c3cc(F)cc(c23)N[C@@H]1c1ccc(F)cc1 + CC(Nc1ncnc2nc[nH]c12)c1cc2cccc(Cl)c2c(=O)n1-c1ccccc1 please. label 0

Now this one: CC(C)n1nc(-c2ccc3oc(N)nc3c2)c2c(N)ncnc21 + CC(Nc1ncnc2nc[nH]c12)c1cc2cccc(Cl)c2c(=O)n1-c1ccccc1 label 0

Proceed to CC(C)n1nc(-c2ccc3oc(N)nc3c2)c2c(N)ncnc21 + Cc1nc(NC(=O)N2CCCC2C(N)=O)sc1-c1ccnc(C(C)(C)C(F)(F)F)c1 label 0
